System: MDA-MB-231 breast
assay protocol: NCI tumour cell line growth inhibition, 48 h
For each of the compounds below, state its TGI.

**Q:** Query: TGI; subject: Cn1ccnc1CC(C)(O)c1ccccc1 (stereo not given)
**A:** > 100 µM

**Q:** Query: TGI; subject: COC(=O)c1cc2c(o1)Sc1ccccc1NC2=O
**A:** > 100 µM

**Q:** Query: TGI; subject: CC(O)c1cccc(NCc2c3ccccc3c(=O)n3c2oc2ccccc23)c1 (stereo not given)
**A:** 47.9 µM

**Q:** Query: TGI; subject: N#CC(C#N)N=Cc1ccncc1
**A:** > 100 µM

**Q:** Query: TGI; subject: O=C1c2ccccc2-c2c1c1ccccc1c(=O)n2CCCNCCCn1ccnc1
**A:** 7.36 µM

**Q:** Query: TGI; subject: COc1cc2c[n+](C)c3c4cc5c(cc4ccc3c2cc1OC)OCO5
**A:** > 100 µM

**Q:** Query: TGI; subject: CC(=O)N1C(=O)CC2(N=C(C)CC2=O)c2ccccc21 (stereo not given)
**A:** > 10 µM

**Q:** Query: TGI; subject: CC[C@](O)(CC(=O)O[C@H]1C(=O)O[C@@H]2C[C@H]3C(C)=CC(=O)[C@@H](O)[C@]3(C)[C@H]3[C@@]4(O)OC[C@]32[C@@H]1[C@@H](C)[C@H]4O)C(C)C
**A:** < 0.0119 µM

**Q:** Query: TGI; subject: CCOC(=O)C1=CN/C(=C(/C)C(=O)OC)SC1C(=O)OCC (stereo not given)
**A:** > 100 µM

**Q:** Query: TGI; subject: COC(=O)C(Cc1c[nH]c2ccccc12)N=C1Nc2ccncc2S(=O)(=O)N1c1ccccc1 (stereo not given)
**A:** > 100 µM

====

For each of the compounds below, state its TGI.
System: OVCAR-8 ovarian
assay protocol: NCI tumour cell line growth inhibition, 48 h

**Q:** Query: TGI; subject: COc1cc2c(cc1OCCCOc1cc3c(cc1OC)C(=O)N1C[C@H](F)C[C@H]1C=N3)N=C[C@@H]1C[C@@H](F)CN1C2=O
**A:** 18.5 µM

**Q:** Query: TGI; subject: COc1ccc2cc(Oc3ccc(Cl)cc3)c(=O)oc2c1
**A:** > 100 µM

**Q:** Query: TGI; subject: CC(O)c1cccc(NCc2c3ccccc3c(=O)n3c2oc2ccccc23)c1 (centres undefined)
**A:** 36.2 µM

**Q:** Query: TGI; subject: O=C1C(=O)c2c(oc(=O)c3ccccc23)-c2ccccc21
**A:** > 25 µM

**Q:** Query: TGI; subject: OC1(CCc2ccccc2)COC(C(F)(F)F)(C(F)(F)F)C1 (centres undefined)
**A:** > 100 µM

**Q:** Query: TGI; subject: COC1CC(C)C(OC)C2=CC(=O)C=C(NC(=O)/C(C)=C/C=C\C(C)C(OC(N)=O)/C(C)=C\C(C)C1OC)C2=O (centres undefined)
**A:** 18.3 µM

**Q:** Query: TGI; subject: COc1c2nc(CCl)[nH]c(=O)c2c(OC)c2nc(CCl)[nH]c(=O)c12
**A:** > 100 µM

**Q:** Query: TGI; subject: CC(=O)O[C@H]1CC[C@H]2[C@@H]3CCC4C(C)=NNC(=O)C4[C@H]3CC[C@]12C (some centres undefined)
**A:** > 100 µM

**Q:** Query: TGI; subject: CCOC(=O)C(C(=O)OCC)=C1NC2(c3ccccc3Nc3ccc(C)cc32)C(C#N)S1 (centres undefined)
**A:** 35 µM

**Q:** Query: TGI; subject: COC(=O)C1C(C(=O)OC)C2(OC)c3ccccc3-c3ccccc3C12 (centres undefined)
**A:** > 100 µM

**Q:** Query: TGI; subject: CC12OC(c3ccccc3)=CC(c3ccc(Cl)cc3)=C1C(c1ccccc1)=CC2=O (centres undefined)
**A:** > 100 µM

**Q:** Query: TGI; subject: CC(=O)c1c(C)[nH]c(-c2nc3ccc(N4CCN(C)CC4)cc3[nH]2)c1-c1ccc(OCC2CCOCC2)cc1
**A:** 27.9 µM

**Q:** Query: TGI; subject: COc1ccc2cc(CNCCCCCCCCCCCCNCc3ccc4cc(OC)ccc4c3)ccc2c1
**A:** 32.4 µM

**Q:** Query: TGI; subject: CCOC(=O)C(SCCO)C(C(=O)OCC)n1cnc2c(N)ncnc21 (centres undefined)
**A:** 31.2 µM

**Q:** Query: TGI; subject: O=C1c2cccc3cc([N+](=O)[O-])cc(c23)C(=O)N1CCCN1CCN(CCCNc2ccc3ncn4c5ccccc5c(=O)c2c34)CC1
**A:** 0.173 µM

**Q:** Query: TGI; subject: CC(C)CS(=O)(=O)/C(=C(\c1ccc(Br)cc1)S(=O)(=O)CC(C)C)c1ccc(Br)cc1
**A:** > 100 µM

**Q:** Query: TGI; subject: C=C1C(=O)OC2/C=C(\CO)C3OC3C3OC3(C)CC(OC(=O)/C(=C/C)CO)C12 (centres undefined)
**A:** > 100 µM

**Q:** Query: TGI; subject: O=C(Nc1ccc(Cl)cc1)C(=O)C(C(=O)c1ccccc1-c1ccccc1)C1OC(=O)c2ccccc21 (centres undefined)
**A:** 29.3 µM

**Q:** Query: TGI; subject: CCOC(=O)NNC(=O)C1CSC(c2ccccc2)N1C(C)=O (centres undefined)
**A:** > 100 µM

**Q:** Query: TGI; subject: CC[C@H](NC(=O)[C@H](C)NC)C(=O)N1C[C@@H](O)C[C@H]1Cc1c(-c2[nH]c3cc(F)ccc3c2C[C@@H]2C[C@H](O)CN2C(=O)[C@H](CC)NC(=O)[C@H](C)NC)[nH]c2cc(F)ccc12
**A:** > 100 µM

**Q:** Query: TGI; subject: COC(=O)CCc1cc(OC)c2c(c1)C(C(=O)OC)C(c1ccc(OC)c(OC)c1)O2 (centres undefined)
**A:** > 100 µM

**Q:** Query: TGI; subject: CCCCOC(=O)NC(=O)c1cn(CCCOC(=O)CCCCCCCCC(=O)OCCCn2cc(C(=O)NC(=O)OCCCC)c(=O)[nH]c2=O)c(=O)[nH]c1=O
**A:** > 100 µM

**Q:** Query: TGI; subject: COc1cc(/C=C(\C#N)C(=O)c2ccccc2)ccc1OCc1ccccc1
**A:** > 100 µM

**Q:** Query: TGI; subject: O=C1Nc2ccc(C(=O)c3ccco3)cc2/C1=C/c1cc(Cl)c(O)c(Cl)c1
**A:** > 25 µM

**Q:** Query: TGI; subject: COC(=O)C1=C(O)C(C(=O)OC)[C@]2(O)[C@H](C(=O)OC)[C@H]1C[C@@H](c1ccc(F)cc1)[C@H]2C(=O)OC (some centres undefined)
**A:** 86.8 µM

**Q:** Query: TGI; subject: COc1cc(S(=O)(=O)Nc2nc(-c3ccc(N4C(=O)C(CC(=O)O)SC4c4ccccc4O)cc3)cs2)ccc1Cl (centres undefined)
**A:** > 100 µM

**Q:** Query: TGI; subject: CCN(CC)CSc1nc2ccccc2o1
**A:** > 100 µM

**Q:** Query: TGI; subject: O=c1c2cc(Cl)ccc2oc2ccc(OCCCCCN3CCCCC3)cc12
**A:** 14.2 µM

**Q:** Query: TGI; subject: CC(=O)Oc1cc2c(n(C)c1=O)-c1ccccc1C2
**A:** > 100 µM

**Q:** Query: TGI; subject: COC(=O)C(Cc1cn(C(C)=O)c2ccccc12)P(=O)(OC)OC (centres undefined)
**A:** > 100 µM

**Q:** Query: TGI; subject: CCN1CCN(C(=O)[C@]23CC[C@@H](C)[C@H](C)[C@@H]2C2=CC[C@@H]4[C@@]5(C)C/C(=C/c6ccncc6)C(=O)C(C)(C)[C@@H]5CC[C@@]4(C)[C@]2(C)CC3)CC1
**A:** 5.75 µM

**Q:** Query: TGI; subject: CC(C)(C)O/C=C1/C(=O)OC2C[C@@H](O[Si](C)(C)C(C)(C)C)CC12 (some centres undefined)
**A:** > 100 µM

**Q:** Query: TGI; subject: O=C1c2ccccc2-c2cccc3ccc(Cc4ccc5ccccc5c4)c1c23
**A:** > 100 µM

**Q:** Query: TGI; subject: CN(C)C=Nc1cccc2nsnc12
**A:** > 100 µM

====

System: SF-268 CNS
assay protocol: NCI tumour cell line growth inhibition, 48 h
measurement type: TGI

**Q:** I'm curious: which TGI was measured for COc1ccc(Nc2nnc(CCCCCCCCc3nnc(Nc4ccc(OC)cc4)o3)o2)cc1 tested on SF-268 CNS?
**A:** > 100 µM

**Q:** I'm curious: which TGI was measured for CSc1nc(C)c2c(n1)SCC2 tested on SF-268 CNS?
**A:** > 10 µM

**Q:** I'm curious: which TGI was measured for O=C1NC(=O)C(Cc2ccccc2)(c2cccnc2)N1 (centres undefined) tested on SF-268 CNS?
**A:** > 100 µM

**Q:** I'm curious: which TGI was measured for CC(C)(C)O/C=C1/C(=O)OC2C[C@@H](O[Si](C)(C)C(C)(C)C)CC12 (some centres undefined) tested on SF-268 CNS?
**A:** > 100 µM

**Q:** I'm curious: which TGI was measured for CN[C@@H](C)C(=O)N[C@H](C(=O)N1CCC[C@H]1C(=O)N[C@H]1c2ccccc2C[C@H]1OCC#CC#CCO[C@@H]1Cc2ccccc2[C@@H]1NC(=O)[C@@H]1CCCN1C(=O)[C@@H](NC(=O)[C@H](C)NC)C1CCCCC1)C1CCCCC1 tested on SF-268 CNS?
**A:** 13.5 µM

**Q:** I'm curious: which TGI was measured for CC(C)(C)[Si](C)(C)O[C@@H](C(=O)OC1C=CCCC1)[C@@H](NC(=O)c1ccccc1)c1ccccc1 (some centres undefined) tested on SF-268 CNS?
**A:** > 100 µM

**Q:** I'm curious: which TGI was measured for COc1ccc(-c2onc(-c3ccc([N+](=O)[O-])cc3)c2C2=NCCN2)cc1 tested on SF-268 CNS?
**A:** > 100 µM

**Q:** I'm curious: which TGI was measured for CC(=O)c1cccc(N2COC(C)(C)c3nc4ccccc4n3C2)c1 tested on SF-268 CNS?
**A:** > 100 µM

**Q:** I'm curious: which TGI was measured for COc1cc(OCc2ccc3nc(-c4ccccc4)c(Cl)nc3c2)cc(OC)c1OC tested on SF-268 CNS?
**A:** > 100 µM
